- tested.target: M3 muscarinic receptor (Homo sapiens, UniProt P20309)
- Construct: expressed in transfected cells; host or cells: CHO (M3-CHO)
- Sequence (P20309 whole entry): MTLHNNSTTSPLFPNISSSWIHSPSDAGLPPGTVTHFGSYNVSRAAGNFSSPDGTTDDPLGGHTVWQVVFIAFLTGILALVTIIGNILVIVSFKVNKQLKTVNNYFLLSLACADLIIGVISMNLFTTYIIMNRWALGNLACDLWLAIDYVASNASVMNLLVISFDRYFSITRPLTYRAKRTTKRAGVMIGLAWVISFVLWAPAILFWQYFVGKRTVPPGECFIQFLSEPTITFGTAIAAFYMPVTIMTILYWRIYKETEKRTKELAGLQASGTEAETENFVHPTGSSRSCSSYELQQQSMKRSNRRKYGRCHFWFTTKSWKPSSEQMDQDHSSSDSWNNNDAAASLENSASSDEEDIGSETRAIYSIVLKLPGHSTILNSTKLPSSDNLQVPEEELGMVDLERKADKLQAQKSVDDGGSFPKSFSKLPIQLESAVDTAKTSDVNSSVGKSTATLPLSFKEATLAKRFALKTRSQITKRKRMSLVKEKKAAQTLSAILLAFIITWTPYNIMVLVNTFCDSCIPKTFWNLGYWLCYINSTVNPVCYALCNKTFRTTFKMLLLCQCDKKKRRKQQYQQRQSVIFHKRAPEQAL
- assay.remarks: Functional mobilization of intracellular calcium (FLIPR) in CHO cells expressing M3
- Format: cell-based
- condition.summary: CHO; 100% = maximum response obtained with the Carbachol control; read-out: M3 Efficacy
readout.label: Emax

CC(C)(C)CCN1CCC2(CC[C@@H](N3CCCC3=O)c3ccc(F)cc32)CC1 [compound 168] : < 25%
CC(C)[C@@H](C(=O)N[C@H]1CCC2(CCN(CCC(C)(C)C)CC2)c2ccccc21)N1CCCC1=O [compound 167] : < 25%
CC(C)(C)CCN1CCC2(CC[C@@H](NC(=O)CN3CCCCCC3=O)c3ccccc32)CC1 [compound 169] : < 25%

Request: Enter measured Emax, system M3 muscarinic receptor (Homo sapiens, UniProt P20309), for the compound shown: CC(=O)N[C@H](C)C(=O)N[C@@H]1CCC2(CCN(CCC(C)(C)C)CC2)c2ccccc21 [compound 162]
Result: < 25%

Request: Tell me its Emax on M3 muscarinic receptor (Homo sapiens, UniProt P20309): CC(C)(C)CCN1CCC2(CC[C@@H](NC(=O)CC3CCCC3=O)c3ccc(F)cc32)CC1 (stereo partly shown) [compound 17]
Result: < 25%

Request: Look up and report measured Emax (M3 muscarinic receptor (Homo sapiens, UniProt P20309)) for the following compound: CC(C)(C)CCN1CCC2(CC[C@@H](NC(=O)Cc3cccnc3)c3ccc(F)cc32)CC1 [compound 65]
Result: < 25%

Request: Specify the recorded Emax for CCN(C(=O)CCC(C)=O)[C@H]1CCC2(CCN(CCC(C)(C)C)CC2)c2ccccc21 [compound 54] , system: M3 muscarinic receptor (Homo sapiens, UniProt P20309).
Result: < 25%
